biological target: T1, truncated wild type EGFR 1-525 (EGFR1 (1-525)-SRGPF-Myc-NMHTG-6His) (human, UniProt P00533 25-525); test: SPR (Biacore), antibody captured via anti-human Fc, antigen injected
T1 construct: the signal peptide is left out; not shown: Myc tag
reported_metric: koff (s⁻¹)
Number only, in s⁻¹; omit the unit.

Quick note, koff for Antibody D (AbD) (antibody, V domains shown, Full length IgG1) VH: EVQLQESGPGLVKPSQTLSLTCTVSGYSISSDFAWNWIRQPPGKGLEWMGYISYSGNTRYQPSLKSRITISRDTSKNQFFLKLNSVTAADTATYYCVTAGRGFPYWGQGTLVTVSS VL: DIQMTQSPSSMSVSVGDRVTITCHSSQDINSNLGWLQQKPGKSFKGLIYHGANLHDGVPSRFSGSGSGTDYTLTISSLQPEDFATYYCVQYAEFPWTFGGGTKLEIK landed at 0.00322

Quick note, koff for Antibody G (AbG) (antibody, V domains shown, Full length IgG1) VH: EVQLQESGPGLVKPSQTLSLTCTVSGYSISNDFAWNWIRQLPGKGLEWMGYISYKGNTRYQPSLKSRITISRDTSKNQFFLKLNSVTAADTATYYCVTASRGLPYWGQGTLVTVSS VL: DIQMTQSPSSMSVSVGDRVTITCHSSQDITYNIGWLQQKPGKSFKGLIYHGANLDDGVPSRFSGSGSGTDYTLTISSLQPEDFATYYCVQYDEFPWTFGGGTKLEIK landed at 5.88e-05

Quick note, koff for Antibody K (AbK) (antibody, V domains shown, Full length IgG1) VH: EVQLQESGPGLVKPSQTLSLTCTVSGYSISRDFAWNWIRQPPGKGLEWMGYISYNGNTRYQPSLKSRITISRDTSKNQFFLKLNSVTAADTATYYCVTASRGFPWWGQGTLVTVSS VL: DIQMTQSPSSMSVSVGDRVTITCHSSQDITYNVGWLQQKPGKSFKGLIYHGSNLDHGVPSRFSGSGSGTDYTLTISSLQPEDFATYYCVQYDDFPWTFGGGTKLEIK landed at 7.92e-06

Quick note, koff for Antibody B (AbB) (antibody, V domains shown, Converted from scFv into a full length IgG1 antibody) VH: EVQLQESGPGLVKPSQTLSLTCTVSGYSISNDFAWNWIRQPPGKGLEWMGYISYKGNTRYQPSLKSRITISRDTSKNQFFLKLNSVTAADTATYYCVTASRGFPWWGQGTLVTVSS VL: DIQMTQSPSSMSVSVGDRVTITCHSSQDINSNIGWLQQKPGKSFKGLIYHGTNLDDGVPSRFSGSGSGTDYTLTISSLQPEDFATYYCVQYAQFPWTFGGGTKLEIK landed at 0.00119
